Reported pIC50 is given for each of the following molecules.
- system tested: Tyrosine-protein kinase JAK2 (Homo sapiens, UniProt O60674)
- Sequence (O60674 whole entry): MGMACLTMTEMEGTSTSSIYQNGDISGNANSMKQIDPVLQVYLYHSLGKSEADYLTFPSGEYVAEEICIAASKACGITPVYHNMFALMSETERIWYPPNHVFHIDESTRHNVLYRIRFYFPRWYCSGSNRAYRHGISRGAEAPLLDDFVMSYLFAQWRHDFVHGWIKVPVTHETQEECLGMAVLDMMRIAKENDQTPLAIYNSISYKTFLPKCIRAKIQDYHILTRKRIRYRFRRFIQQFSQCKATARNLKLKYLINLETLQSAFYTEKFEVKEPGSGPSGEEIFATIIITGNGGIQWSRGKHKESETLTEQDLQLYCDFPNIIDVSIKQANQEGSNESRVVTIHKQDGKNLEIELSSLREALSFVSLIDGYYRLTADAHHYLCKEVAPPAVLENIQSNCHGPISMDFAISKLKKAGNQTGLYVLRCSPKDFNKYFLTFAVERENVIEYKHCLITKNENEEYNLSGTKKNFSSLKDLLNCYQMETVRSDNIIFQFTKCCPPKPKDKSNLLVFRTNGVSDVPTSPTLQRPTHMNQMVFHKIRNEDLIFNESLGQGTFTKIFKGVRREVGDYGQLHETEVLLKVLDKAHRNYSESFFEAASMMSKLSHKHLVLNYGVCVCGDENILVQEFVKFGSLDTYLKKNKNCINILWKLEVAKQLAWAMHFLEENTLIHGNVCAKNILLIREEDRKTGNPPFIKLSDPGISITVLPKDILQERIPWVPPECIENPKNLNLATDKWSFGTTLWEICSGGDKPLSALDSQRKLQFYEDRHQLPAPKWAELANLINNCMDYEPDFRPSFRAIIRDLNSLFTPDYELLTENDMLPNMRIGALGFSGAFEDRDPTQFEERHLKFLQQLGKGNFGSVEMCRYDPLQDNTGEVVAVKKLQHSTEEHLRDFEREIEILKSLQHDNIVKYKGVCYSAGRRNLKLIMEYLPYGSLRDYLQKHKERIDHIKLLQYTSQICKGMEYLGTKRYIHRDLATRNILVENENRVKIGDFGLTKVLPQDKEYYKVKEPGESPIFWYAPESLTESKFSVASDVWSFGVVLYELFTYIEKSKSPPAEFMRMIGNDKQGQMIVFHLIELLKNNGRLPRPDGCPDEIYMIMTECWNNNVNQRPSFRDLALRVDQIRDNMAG
pIC50: −log10 of the molar value.

>>> result("N#CCC1(n2cc(-c3ccnc4[nH]ccc34)cn2)CN(C2CCN(C(=O)c3ccnc(C(F)(F)F)c3F)CC2)C1")
"< 7.00"

// next item, pIC50 requested
For CO[C@@H]1CN(C(=O)c2ccnc(C(F)(F)F)c2F)CC[C@@H]1N1CC(CC#N)(n2cc(-c3ncnc4[nH]ccc34)cn2)C1 (relative stereo) , what is its reported pIC50?
< 7.00
